TEST_SUMMARY: Solubility
Assay type: physicochemical
PROTOCOL_CONDITIONS: water, thermodynamic from solid, water; Crystal Form 1; read-out: Solubility
Structures can show the parent of a compound that is named as a salt.
REPORTED_ENDPOINT: solubility (mg/mL)
Give the quantity in mg/mL, number only.

query: Given CCC(=O)NS(=O)(=O)c1ccc(NC(=O)COc2ccc(Cl)cc2C(=O)c2cc(Cl)cc(C#N)c2)c(C)c1 [Compound 34, Sodium Salt] , state its recorded solubility.
result: 92

* * *

TEST_SUMMARY: Solubility
Type: physicochemical
PROTOCOL_CONDITIONS: water, thermodynamic from solid, water; Crystal Form 4; read-out: Solubility
Where a name gives a salt, the structure may show the parent alone.
REPORTED_ENDPOINT: solubility (µg/mL)
Numeric only. Scale: µg/mL

query: Query (compound): CCC(=O)NS(=O)(=O)c1ccc(NC(=O)COc2ccc(Cl)cc2C(=O)c2cc(Cl)cc(C#N)c2)c(C)c1 [Compound 34, Sodium Salt] ; field requested: solubility
result: 2500

* * *

TEST_SUMMARY: Solubility
Format: physicochemical
PROTOCOL_CONDITIONS: water, thermodynamic from solid, water; Crystal Form 9; read-out: Solubility
Where a name gives a salt, the structure may show the parent alone.
REPORTED_ENDPOINT: solubility

query: Return reported solubility; argument: CCC(=O)NS(=O)(=O)c1ccc(NC(=O)COc2ccc(Cl)cc2C(=O)c2cc(Cl)cc(C#N)c2)c(C)c1 [Compound 34, Sodium Salt]
result: > 100 mg/mL

* * *

TEST_SUMMARY: Oral bioavailability in male Sprague-Dawley rats
Format: in vivo, Sprague-Dawley (CD) rat
PROTOCOL_CONDITIONS: rat, plasma, free acid, Amorph., IV 1 mg/kg, PEG400:Solutol:Water (30:20:50), read-out: Mean Exposures of 40 AUC0-∞
REPORTED_ENDPOINT: AUC(0-inf) (ng·h/mL)
Write the answer as a number in ng·h/mL, unit excluded.

query: Consider the compound shown here: Cc1cc(S(N)(=O)=O)ccc1NC(=O)COc1ccc(Cl)cc1C(=O)c1cc(Cl)cc(C#N)c1 [Compound 40] What is its recorded AUC(0-inf)?
result: 1740

* * *

TEST_SUMMARY: Solubility
Assay type: physicochemical
PROTOCOL_CONDITIONS: water, thermodynamic from solid, water; Crystal Form 12; read-out: Solubility
Counter-ions that a name gives are not always drawn.
REPORTED_ENDPOINT: solubility

query: Any idea what solubility was measured for CCC(=O)NS(=O)(=O)c1ccc(NC(=O)COc2ccc(Cl)cc2C(=O)c2cc(Cl)cc(C#N)c2)c(C)c1 [Compound 34, Sodium Salt] ?
result: > 100 mg/mL

* * *

TEST_SUMMARY: Solubility
Type: physicochemical
PROTOCOL_CONDITIONS: fassgf or other biorelevant, thermodynamic from solid; SIF; Crystal Form 1; read-out: Solubility
REPORTED_ENDPOINT: solubility
Note: a bare number is incomplete; add the unit.

query: Request the reported solubility associated with `Cc1cc(S(N)(=O)=O)ccc1NC(=O)COc1ccc(Cl)cc1C(=O)c1cc(Cl)cc(C#N)c1`
result: 2.9 µg/mL

* * *

TEST_SUMMARY: Solubility
Format: physicochemical
PROTOCOL_CONDITIONS: water, thermodynamic from solid, water; Crystal Form 10; read-out: Solubility
Structures can show the parent of a compound that is named as a salt.
REPORTED_ENDPOINT: solubility

query: Fill blank: measured solubility of the compound CCC(=O)NS(=O)(=O)c1ccc(NC(=O)COc2ccc(Cl)cc2C(=O)c2cc(Cl)cc(C#N)c2)c(C)c1 [Compound 34, Sodium Salt] is ____.
result: > 100 mg/mL
